target: recombinant eIF4E (Homo sapiens (Human), UniProt P06730); experiment: Fluorescence polarization competition assay for eIF4E binding potency; settings: inhibition of eIF4E/EDA-m7GDP-ATTO-550 binding by 50%; Table 4B calculated values; read-out: IC50
Sequence (P06730 whole entry): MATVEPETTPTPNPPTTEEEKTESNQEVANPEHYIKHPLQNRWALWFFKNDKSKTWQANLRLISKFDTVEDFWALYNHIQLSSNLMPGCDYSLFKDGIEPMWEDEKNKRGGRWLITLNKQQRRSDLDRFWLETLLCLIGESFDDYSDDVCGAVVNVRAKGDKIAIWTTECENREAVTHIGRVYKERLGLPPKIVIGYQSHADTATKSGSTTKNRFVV
experimental-endpoint: IC50 (nM)

Cc1cc(-c2cc(Cl)ccc2OCCn2c(C)nc3cnc(CCF)c(C#N)c3c2=O)c2scc(C(=O)O)c2n1 [compound 1064]    16.2
Cc1cc(-c2cc(Cl)ccc2OCCn2c(C)nc3cnc(Oc4ccccc4)c(C#N)c3c2=O)c2scc(C(=O)O)c2n1 [compound 1038]    38.9
Cc1nc2cnc(N(C)C3CCN(C4CC(F)(F)C4)CC3)c(C#N)c2c(=O)n1CC#Cc1ccc(Cl)cc1-c1ccnc2c(C(=O)NS(=O)(=O)c3ccncc3)csc12 [compound 1111]    5.71
Cc1cc(-c2cc(Cl)ccc2OCCn2c(C)nc3cc(C(F)(F)F)cc(C#N)c3c2=O)c2scc(C(=O)O)c2n1 [compound 121]    37.5
Cc1cc(-c2cc(Cl)ccc2OCCn2c(C)nc3cnc(CCN(C)C)c(C#N)c3c2=O)c2scc(C(=O)O)c2n1 [compound 365]    19
CNC(=O)c1cc(C#N)c2c(=O)n(CCOc3ccc(Cl)cc3-c3ccnc4c(C(=O)O)csc34)c(C)nc2c1 [compound 412]    70.1

(a) Cc1sc2c(-c3cc(Cl)ccc3OCCn3c(C)nc4cc(C(F)(F)F)c(Cl)c(C#N)c4c3=O)ccnc2c1C(=O)O [compound 555]
(b) Cc1nc2cc(C(F)(F)F)c(N3CCN(C)CC3)c(C#N)c2c(=O)n1CCOc1ccc(Cl)cc1-c1ccccc1 [compound 833]
Incoming: Hi there! Just curious which has the higher IC50 between a and b . Refer to your chosen entry by its label in the reply.
Outgoing: b
(b: 111 nM, a: 10.8 nM)

(A) Cc1cc(-c2cc(Cl)ccc2OCCn2c(C)nc3cc(Cl)c(N4CCC4)c(C#N)c3c2=O)c2scc(C(=O)O)c2n1 [compound 752]
(B) Cc1nc2cc(C(F)(F)F)cc(Br)c2c(=O)n1CCOc1ccc(Cl)cc1-c1ccnc2c(C(=O)O)csc12 [compound 305]
(C) Cc1nc2cnc(C3CC3)c(C#N)c2c(=O)n1CCOc1ccc(Cl)cc1Sc1nc(C(=O)O)cs1 [compound 922]
(D) Cc1cc(-c2cc(Cl)ccc2OCCn2c(C)nc3cc(Cl)c(C(F)F)c(C#N)c3c2=O)c2scc(C(=O)O)c2n1 [compound 586]
(E) CCc1cc(-c2cc(Cl)ccc2OCCn2c(C)nc3cc(C(F)(F)F)c(-c4ccncc4)c(C#N)c3c2=O)c2scc(C(=O)O)c2n1 [compound 1012]
Incoming: Hi! Can you put these in order of IC50, lowest number first? Write out the labels following the order that was asked for.
Outgoing: E, A, D, C, B

(A) Cc1cc(-c2cc(Cl)ccc2OCCn2c(C)nc3cc(C(F)(F)F)c(-c4cnc(C(F)F)cn4)nc3c2=O)c2scc(C(=O)O)c2n1 [compound 1020]
(B) Cc1cc(-c2c(Cl)cc3nc(C)n(CCOc4ccc(Cl)cc4-c4cc(C)nc5c(C(=O)O)csc45)c(=O)c3c2C#N)ccn1 [compound 393]
Incoming: Select one. Lower IC50: A or B Refer to your chosen entry by its label in the reply.
Outgoing: B
